// provenance: ChEMBL document CHEMBL1145786

IC50 overview
target: Disintegrin and metalloproteinase domain-containing protein 17 (Homo sapiens)
Reply numerically in nM, unit not repeated.

## Input Please tell me the measured IC50 for CCCC[C@@](Cc1cccnc1)(C(=O)NO)S(=O)(=O)c1ccc(OC)cc1 ; system: Disintegrin and metalloproteinase domain-containing protein 17 (Homo sapiens).
## Output 764

As a next step, examine the compound that follows.
## Input Please tell me the measured IC50 for CCCCCCCC[C@@](Cc1cccnc1)(C(=O)NO)S(=O)(=O)c1ccc(OC)cc1 ; system: Disintegrin and metalloproteinase domain-containing protein 17 (Homo sapiens).
## Output 669

---

biological target: Collagenase 3 (Homo sapiens, UniProt P45452); assay: In vitro inhibition of matrix metalloprotease-13
measured endpoint: IC50 (nM)
Reply numerically in nM, unit not repeated.

Solved cases below.
## Input For COc1ccc(S(=O)(=O)C(Cc2ccccc2)C(=O)NO)cc1 (centres undefined) , write its IC50.
## Output 100

## Input For CCCCCCCCS(=O)(=O)C(C)(Cc1ccc(OCCN2CCCCC2)cc1)C(=O)NO (centres undefined) , write its IC50.
## Output 55

## Input For CC(Cc1ccc(OCCN2CCCCC2)cc1)(C(=O)NO)S(=O)(=O)c1cccs1 (centres undefined) , write its IC50.
## Output 85

As a next step, examine the molecule that follows.
## Input For CC(Cc1ccccc1)(C(=O)NO)S(=O)(=O)c1cccs1 (centres undefined) , write its IC50.
## Output 37

---

molecular target: Disintegrin and metalloproteinase domain-containing protein 17 (Homo sapiens, UniProt P78536); assay: In vitro inhibition against tumor necrosis factor alpha converting enzyme at 10 uM concentration
Sequence (P78536 whole entry, the tested form may be a part): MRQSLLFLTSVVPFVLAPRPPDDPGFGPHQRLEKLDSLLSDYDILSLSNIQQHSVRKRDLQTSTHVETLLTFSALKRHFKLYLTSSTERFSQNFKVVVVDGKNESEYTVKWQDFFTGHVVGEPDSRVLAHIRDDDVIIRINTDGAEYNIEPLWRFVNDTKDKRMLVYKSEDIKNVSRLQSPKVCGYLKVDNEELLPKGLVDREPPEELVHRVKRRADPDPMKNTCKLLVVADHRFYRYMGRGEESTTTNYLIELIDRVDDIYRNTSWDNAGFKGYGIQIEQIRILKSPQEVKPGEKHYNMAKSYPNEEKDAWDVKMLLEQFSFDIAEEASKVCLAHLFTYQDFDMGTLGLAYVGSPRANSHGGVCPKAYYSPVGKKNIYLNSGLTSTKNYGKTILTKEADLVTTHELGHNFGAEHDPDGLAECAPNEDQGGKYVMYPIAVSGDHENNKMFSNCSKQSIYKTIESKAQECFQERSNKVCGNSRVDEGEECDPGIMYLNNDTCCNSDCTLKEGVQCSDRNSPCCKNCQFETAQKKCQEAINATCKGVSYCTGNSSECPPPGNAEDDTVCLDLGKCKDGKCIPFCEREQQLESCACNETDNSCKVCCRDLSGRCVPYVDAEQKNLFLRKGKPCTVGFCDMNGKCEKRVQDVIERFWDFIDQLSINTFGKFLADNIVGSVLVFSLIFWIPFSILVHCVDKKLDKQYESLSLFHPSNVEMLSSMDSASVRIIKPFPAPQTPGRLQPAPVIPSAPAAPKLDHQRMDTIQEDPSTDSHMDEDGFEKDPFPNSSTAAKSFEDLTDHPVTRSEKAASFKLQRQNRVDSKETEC
Each record gets a class by inhibition: low (below 20%), moderate (20% to below 40%), high (40% or more)

Here's what some known entries look like.
## Input Textbook exercise: identify the category of the compound given here, CC(Cc1ccc(OCCN2CCCCC2)cc1)(C(=O)NO)S(=O)(=O)c1cccs1 (stereo unspecified) , according to its measured value.
## Output high

## Input Textbook exercise: identify the category of the compound given here, COc1ccc(S(=O)(=O)C(C)(Cc2ccc(OCCN3CCOCC3)cc2)C(=O)NO)cc1 (stereo unspecified) , according to its measured value.
## Output high

## Input Textbook exercise: identify the category of the compound given here, C#CCC(Cc1cccnc1)(C(=O)NO)S(=O)(=O)c1ccc(OC)cc1 (stereo unspecified) , according to its measured value.
## Output moderate

New cases:
## Input Textbook exercise: identify the category of the compound given here, CCN(CC)COc1ccc(CC(C)(C(=O)NO)S(=O)(=O)c2ccc(-c3ccco3)cc2)cc1 (stereo unspecified) , according to its measured value.
## Output high

## Input Textbook exercise: identify the category of the compound given here, C=CCC(CC=C)(C(=O)NO)S(=O)(=O)c1ccc(OC)cc1 , according to its measured value.
## Output low

## Input Textbook exercise: identify the category of the compound given here, COc1ccc(S(=O)(=O)C(Cc2cccnc2)(CC(C)C)C(=O)NO)cc1 (stereo unspecified) , according to its measured value.
## Output high

## Input Textbook exercise: identify the category of the compound given here, COc1ccc(S(=O)(=O)C(C)(Cc2ccc(OCCN3CCCCCC3)cc2)C(=O)NO)cc1 (stereo unspecified) , according to its measured value.
## Output moderate

## Input Textbook exercise: identify the category of the compound given here, COc1ccc(S(=O)(=O)C(C)(Cc2cccnc2)C(=O)NO)cc1 (stereo unspecified) , according to its measured value.
## Output low
